Entry source: PubChem BioAssay (NCI)

Tested on: NCI-H460 lung
RUN_DESCRIPTION: NCI-60 one-dose screen, 48 h
TEST_CONDITIONS: 10 µM unless noted
The panel holds about 83,000 compounds, 20% with a hit somewhere; the sample as a whole holds those more often. Activity calls are given as the source filed them. Rule for the calls: active = growth percent below 10; inactive = the rest.
Labels: active, inactive

# COMPOUND, CAT
data = [
    ("O=C(CSc1ncccc1C(=O)O)Nc1ccc(Oc2ccccc2)cc1", "inactive"),
    ("O=C1Nc2ccccc2/C1=C/c1ccc[nH]1", "inactive"),
    ("Oc1c(C(Nc2ccccn2)c2cccc(Oc3ccccc3)c2)ccc2cccnc12 (stereo not drawn)", "active"),
    ("COC(=O)C1(C)COP(=O)(Nc2ccc(OC)cc2)OC1 (stereo not drawn)", "inactive"),
    ("COc1ccc(CCN2CCC(CN(C)Cc3cnn(-c4ccccc4)c3)CC2)cc1", "active"),
    ("COc1cc(NC(=O)CCSc2nc3ccccc3c(=O)n2CCc2ccccn2)cc(OC)c1OC", "inactive"),
    ("CCCCCCCCCCCCCCn1cc(C2=C(c3coc4ccc(OC)cc34)C(=O)NC2=O)c2ccccc21", "inactive"),
    ("COc1ccc(Cn2cc(Cn3c(=O)c(-c4nc5ccccc5[nH]4)cc4ccccc43)nn2)c(OC)c1OC", "active"),
]

###

Catalogue of growth values
System: HCT-116 colon
RUN_DESCRIPTION: NCI-60 one-dose screen, 48 h (100 = growth as untreated, 0 = no growth, -100 = all killed)
TEST_CONDITIONS: 10 µM unless noted
This is part of a sample that, as a whole, favours compounds with a hit. Of some 83,000 tested, about 20% had one in any assay.

# MOL, growth [%]
data = [
    ("COC(=O)/C(=C\\c1c(C)[nH]c2ccccc12)S(=O)(=O)c1ccccc1", 29.5),
    ("CCCCN1CCN(c2ccc3nc(-c4ccc5nc(-c6ccc(C(F)(F)F)cc6)[nH]c5c4)[nH]c3c2)CC1", -70.7),
    ("Cc1ccc(OCCCCCCNCCO)c(C)c1", 19.1),
    ("CCOC(=O)c1cc2c(n1Cc1ccccc1)-c1oncc1CCC2", 64.7),
]

###

Test system: HCC-2998 colon
RUN_DESCRIPTION: NCI-60 one-dose screen, 48 h (100 = growth as untreated, 0 = no growth, -100 = all killed)
TEST_CONDITIONS: 10 µM unless noted
The panel holds about 83,000 compounds, 20% with a hit somewhere; the sample as a whole holds those more often.
growth for assorted compounds

# MOL, SYSTEM_NAME, UNIT_ABBREV, growth
data = [
    ("Fc1ccc(Oc2ccc(Nc3ncnc4onc(-c5ccccc5)c34)cc2)cc1", "HCC-2998 colon", "%", 105),
    ("Clc1ccc(Oc2ccc(Nc3ncnc4onc(-c5ccccc5)c34)cc2)c(Cl)c1", "HCC-2998 colon", "%", 103),
    ("COc1ccc2oc(=O)cc(Cn3cc(Cn4cnc5c4c(=O)n(C)c(=O)n5C)nn3)c2c1", "HCC-2998 colon", "%", 95.9),
    ("CCN1CCN(c2cc(C)c3cc(NC(=O)c4ccc(OC)c(OC)c4)ccc3n2)CC1", "HCC-2998 colon", "%", 81.9),
]

###

Test system: CAKI-1 renal
RUN_DESCRIPTION: NCI-60 one-dose screen, 48 h
TEST_CONDITIONS: 10 µM unless noted
Procedure: Growth inhibition of the CAKI-1 human tumor cell line is measured as a screen for anti-cancer activity. Cells are grown in 96 well plates and exposed to the test compound for 48 hours. Compounds are tested at a single concentration, which is 10^-5 M for most compounds. The reported endpoint is percent growth (GI% or GIPRCNT), where numbers from 0 - 100% represent growth inhibition, and numbers from -100% - 0 represent cell death. For example, a value of 40 represents 60% growth inhibition. […]
Compounds without any hit were thinned out: in the full panel of roughly 83,000, 20% have a hit. Active and inactive are the calls of the source. How the source made its calls: active means growth percent below 10; inactive means the rest.
Outcome codes: active, inactive

# COMPOUND, CAT
rows = [
    ("Cn1c(C(=O)c2cccc3ccccc23)nc2ccccc21", "active"),
    ("Cc1c(-c2csc(-n3nc(C(F)(F)F)cc3C(F)(F)F)n2)no[n+]1[O-]", "inactive"),
    ("O=c1oc2ccc(I)cc2c(=O)n1-c1ccc(Br)cc1F", "active"),
    ("O=C(c1nc2ccccc2[nH]1)C1[C@@H](c2cccc(O)c2)C2CC3CCCCC3N2[C@@]12C(=O)Nc1cc(Cl)ccc12 (stereo partly drawn)", "inactive"),
    ("CC(C)C[C@H](C(=O)N[C@H](C(N)=O)C(C)C)N1CC=CCN(OCc2ccccc2)S1(=O)=O", "inactive"),
    ("O=C(Nc1ccc(Cl)cc1F)c1cc(Br)ccc1O", "active"),
    ("FC(F)(F)c1cccc(Nc2nc3ccccc3nc2Nc2cccc(C(F)(F)F)c2)c1", "active"),
    ("CCOc1ccc2c(c1)CN(Cc1ccc(Cl)cc1)CO2", "inactive"),
]

###

# reported growth; entries follow
System: OVCAR-5 ovarian
RUN_DESCRIPTION: NCI-60 one-dose screen, 48 h (100 = growth as untreated, 0 = no growth, -100 = all killed)
TEST_CONDITIONS: 10 µM unless noted
Protocol: Growth inhibition of the OVCAR-5 human tumor cell line is measured as a screen for anti-cancer activity. Cells are grown in 96 well plates and exposed to the test compound for 48 hours. Compounds are tested at a single concentration, which is 10^-5 M for most compounds. The reported endpoint is percent growth (GI% or GIPRCNT), where numbers from 0 - 100% represent growth inhibition, and numbers from -100% - 0 represent cell death. For example, a value of 40 represents 60% growth inhibition. […]
The panel holds about 83,000 compounds, 20% with a hit somewhere; the sample as a whole holds those more often.
MEASURED_PROPERTY: growth (%)

# COMPOUND, SYSTEM_NAME, MEASURED
rows = [
    ("O=C(Nc1ccc(Cl)cc1F)c1cc(I)ccc1O", "OVCAR-5 ovarian", 79.9),
    ("O=Cc1c(OCc2cnnn2CC(=O)Nc2ccc(Br)cc2)ccc2ccccc12", "OVCAR-5 ovarian", 95),
    ("CN(CCc1ccccc1)C(=S)N(C(=O)c1ccc([N+](=O)[O-])cc1)c1ccc(Cl)cc1", "OVCAR-5 ovarian", 100),
    ("O=C(N/N=C/c1ccccc1O)C(=O)Nc1ccc(F)cc1", "OVCAR-5 ovarian", 64.8),
    ("O=c1oc2ccc(I)cc2c(=O)n1-c1ccc(I)cc1F", "OVCAR-5 ovarian", 27.1),
    ("CCN1C(=O)N(c2ccccc2)C2Nn3c(s/c(=C4\\C(=O)N(C(C)C)c5ccccc54)c3=O)=NC21 (centres undefined)", "OVCAR-5 ovarian", 102),
    ("COc1ccc(OC)c(/C=C/C(=O)c2c(C)nc3ccccc3c2/C=C/c2ccccc2)c1", "OVCAR-5 ovarian", 80),
    ("CN(C)CCCNCc1ccc(-c2ccc(F)c(Cl)c2)o1", "OVCAR-5 ovarian", 65.3),
    ("COc1cc(C2C3=C(COC3=O)N(CCO)c3cc4c(cc32)OCCO4)cc(OC)c1O (centres undefined)", "OVCAR-5 ovarian", 87.4),
    ("Nc1nc(N)c2c(n1)NC1(C=C(O)c3ccccc31)C1=C(N2)c2ccccc2C1=O (centres undefined)", "OVCAR-5 ovarian", 116),
    ("COc1ccc(Cn2c(Br)c3c(c2Br)-c2nc(NC(=O)c4ccc(OC)cc4)sc2CC3)cc1", "OVCAR-5 ovarian", 79.4),
    ("COc1ccc(-c2c(-c3ccc(OC)c(O)c3)cnc3ncnn23)cc1", "OVCAR-5 ovarian", 103),
    ("COc1ccc(C(=O)Nc2ccc3nc(N4CCCCC4)cc(C)c3c2)cc1OC", "OVCAR-5 ovarian", 89.1),
    ("O=C1Nc2ccccc2/C1=C/c1cccs1", "OVCAR-5 ovarian", 95.5),
    ("Cc1ccc(Cn2c(N3CCC(C(=O)NCc4cccs4)CC3)nc3ccccc32)cc1", "OVCAR-5 ovarian", 107),
    ("Fc1ccc(Oc2ccc(Nc3ncnc4onc(-c5ccccc5)c34)cc2)cc1", "OVCAR-5 ovarian", 101),
    ("FC(F)(F)c1cccc(Nc2nc(-c3ccccc3)nc3ncccc23)c1", "OVCAR-5 ovarian", 107),
    ("O=C1c2cc(Br)ccc2Oc2cc([N+](=O)[O-])ccc2N1c1ccc(I)cc1F", "OVCAR-5 ovarian", 97.7),
    ("O=C(/C=C/c1ccc(Cl)cc1)c1ccc(Nc2nc(NCCO)nc(N3CCOCC3)n2)cc1", "OVCAR-5 ovarian", 101),
]

###

Tested on: OVCAR-8 ovarian
RUN_DESCRIPTION: NCI-60 one-dose screen, 48 h
TEST_CONDITIONS: 10 µM unless noted
About 83,000 compounds went through this panel and 20% of them were active in at least one assay; those are over-represented in the sample as a whole. The source made the active and inactive calls. How the source made its calls: active means growth percent below 10; inactive means the rest.
Labels: 1 for active, -1 for inactive

# MOLECULE, CAT
records = [
    ("CN1C(=O)N(C)C2Nn3c(s/c(=C\\c4ccc(Cl)cc4Cl)c3=O)=NC21 (stereo not given)", -1),
    ("O=C(Nc1ccc(F)c(Cl)c1)Nc1ccc(Cl)c(Cl)c1", -1),
    ("CCN(CC)c1cc(C)c2cc(NC(=O)c3cccc(OC)c3)ccc2n1", -1),
    ("CCOC(=O)c1sc(-c2ccc(OS(=O)(=O)c3cccs3)c(C=O)c2)nc1C", 1),
    ("CCCN1CCN(c2ccc3nc(-c4ccc5nc(-c6cc(OC)ccc6OC)[nH]c5c4)[nH]c3c2)CC1", -1),
]
